Test system: barnyardgrass (Echinochloa crus-galli, ECHCG)
PROTOCOL DESCRIPTION: Post-emerge greenhouse herbicide activity screening, phytotoxicity rating
Assay type: in vivo
PARTICULARS: 125 g ai/ha, 14 days after application
RECORDED ENDPOINT: ECHCG phytotoxicity rating (0-100 scale)
Could you keep your reply to the number by itself?

[Q] Fill in: ECHCG phytotoxicity rating (0-100 scale) of Cn1c(C(F)(F)F)cc(=O)n(-c2cc(Oc3ncccc3[N+](=O)[O-])c(Cl)cc2F)c1=S is ___
[A] 50

[Q] Same read-out for Cn1c(C(F)(F)F)cc(=O)n(-c2cc(Oc3ccccc3[N+](=O)[O-])c(Cl)cc2F)c1=S ?
[A] 0

[Q] Same read-out for Cn1nc(-c2cc(Oc3ncccn3)c(Cl)cc2F)c(=O)n(C)c1=S ?
[A] 55

====

System: johnsongrass (Sorghum halepense, SORHA)
PROTOCOL DESCRIPTION: Post-emerge greenhouse herbicide activity screening, phytotoxicity rating
Assay type: in vivo
PARTICULARS: 125 g ai/ha, 14 days after application
For each record, write down the corresponding SORHA phytotoxicity rating (0-100 scale).
Could you keep your reply to the number by itself?

[Q] Fill in: SORHA phytotoxicity rating (0-100 scale) of Fc1cc(Cl)c(Oc2ncccn2)cc1-c1nn2c(c1Br)CCCC2 [Compound 6-2] is ___
[A] 80

[Q] Same read-out for Cn1c(=S)n(C)c(=O)n(-c2cc(Oc3ccccc3N)c(Cl)cc2F)c1=O [Compound 2-18] ?
[A] 0

[Q] Same read-out for Cn1c(C(F)(F)F)cc(=O)n(-c2cc(Oc3ncccn3)c(Cl)cc2F)c1=S [Compound 1-1] ?
[A] 95

[Q] Same read-out for Cn1c(C(F)(F)F)cc(=O)n(-c2cc(Oc3ccccc3O)c(C#N)cc2F)c1=S [Compound 1-70] ?
[A] 0

[Q] Same read-out for Fc1cc(Cl)c(Oc2ncccn2)cc1-c1nn2c(c1Cl)CCCC2 [Compound 6-1] ?
[A] 75

[Q] Same read-out for Cn1c(C(F)(F)F)cc(=O)n(-c2cc(Oc3ccccc3C#N)c(Cl)cc2F)c1=S [Compound 1-66] ?
[A] 0

[Q] Same read-out for Cn1c(C(F)(F)F)cc(=O)n(-c2cc(Oc3ccccc3)c(C#N)cc2F)c1=S [Compound 1-69] ?
[A] 0

[Q] Same read-out for COc1ccc(Oc2cc(-n3c(=O)cc(C(F)(F)F)n(C)c3=S)c(F)cc2C#N)cc1 [Compound 1-72] ?
[A] 0

[Q] Same read-out for Cn1c(C(F)(F)F)cc(=O)n(-c2cc(Oc3ccccc3N)c(Cl)cc2F)c1=S [Compound 1-48] ?
[A] 0

[Q] Same read-out for Cn1c(C(F)(F)F)cc(=O)n(-c2cc(Oc3ccccc3[N+](=O)[O-])c(Cl)cc2F)c1=S [Compound 1-49] ?
[A] 0

[Q] Same read-out for COc1ccccc1Oc1cc(-n2c(=O)cc(C(F)(F)F)n(C)c2=S)c(F)cc1C#N [Compound 1-71] ?
[A] 0

[Q] Same read-out for Cn1c(C(F)(F)F)cc(=O)n(-c2cc(Oc3ncccc3C(F)(F)F)c(Cl)cc2F)c1=S [Compound 1-15] ?
[A] 0

====

For each record, write down the corresponding CASOB phytotoxicity rating (0-100 scale).
Test system: sicklepod (Cassia obtusifolia, CASOB)
PROTOCOL DESCRIPTION: Pre-emerge greenhouse herbicide activity screening, phytotoxicity rating
Assay type: in vivo
PARTICULARS: 250 g ai/ha, 14 days after application
Description: A standard greenhouse herbicide activity screening system was used to evaluate the herbicidal efficacy and crop safety of these test compounds. […] At 14 days after application of the test materials, phytotoxicity ratings were recorded. […]
Could you keep your reply to the number by itself?

[Q] Fill in: CASOB phytotoxicity rating (0-100 scale) of Cn1c(C(F)(F)F)cc(=O)n(-c2cc(Oc3ncccc3[N+](=O)[O-])c(Cl)cc2F)c1=S is ___
[A] 99

[Q] Same read-out for Cn1nc(-c2cc(Oc3ncccn3)c(Cl)cc2F)c(=O)n(C)c1=S ?
[A] 60

[Q] Same read-out for Cn1c(=S)n(C)c(=O)n(-c2cc(Oc3ccccc3[N+](=O)[O-])c(Cl)cc2F)c1=O ?
[A] 30

[Q] Same read-out for Cn1c(C(F)(F)F)cc(=O)n(-c2cc(Oc3ccccc3)c(C#N)cc2F)c1=S ?
[A] 99
